# human HIF-PHD3 (Homo sapiens): pIC50 values follow
# Sequence (Q9H6Z9 whole entry): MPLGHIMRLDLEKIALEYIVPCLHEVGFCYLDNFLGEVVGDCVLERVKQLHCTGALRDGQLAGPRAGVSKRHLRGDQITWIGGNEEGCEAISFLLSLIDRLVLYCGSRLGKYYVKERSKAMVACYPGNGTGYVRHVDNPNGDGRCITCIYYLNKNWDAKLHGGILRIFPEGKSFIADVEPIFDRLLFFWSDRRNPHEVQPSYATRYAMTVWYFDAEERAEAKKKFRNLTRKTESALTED
One number for each entry, as −log10 of the molar value.

Here are 3 compounds together with their reported answers.
compound	pIC50
C[C@H](c1ccc(Cl)c(F)c1)n1ncc2nc(-n3cc(C(=O)O)cn3)nc(O)c21	6.36
O=C(O)c1cnn(-c2nc(O)c3c(cnn3CCCOc3ccc(OCc4ccccc4)c(F)c3)n2)c1	6.66
C[C@H](C1CCCCC1)n1ncc2nc(-n3cc(C(=O)O)cn3)nc(O)c21	5.77

Read the next record carefully.
What does the data say about its pIC50? Entry: CC(c1cc(Cl)c(Cl)s1)n1ncc2nc(-n3cc(C(=O)O)cn3)nc(O)c21 (stereo not shown) [Example 319] 6.28

----------
- study_system: human HIF-PHD2 (Homo sapiens)
// bucketize IC50: lowest = under 20 nM, middle = from 20 nM up to 50 nM, highest = 50 nM and over

Example results:
compound	qualitative_label
O=C(O)c1cnn(-c2nc(O)c3c(cnn3CCC3CCOCC3)n2)c1	highest
O=C(O)c1cnn(-c2nc(O)c3c(n2)c(F)nn3C[C@H]2CC[C@H](C(F)(F)F)CC2)c1	lowest
O=C(O)c1cnn(-c2nc(O)c3c(cnn3CCc3ccc4ccccc4n3)n2)c1	middle

Looking at CCC1CCCC(n2ncc3nc(-n4cc(C(=O)O)cn4)nc(O)c32)C1 (single isomer, unassigned) [Example 414] , which class would you pick? middle

Then Cc1nn(C2CCCCC2)c2c(O)nc(-n3cc(C(=O)O)cn3)nc12 ? highest

Then CC1(C)C(Cn2ncc3nc(-n4cc(C(=O)O)cn4)nc(O)c32)C1(C)C ? highest

Then O=C(O)c1cnn(-c2nc(O)c3c(cnn3CCCOc3ccc4c(c3)CCCC4)n2)c1 ? lowest

Then O=C(O)c1cnn(-c2nc(O)c3c(cnn3CCCOc3ccc(Cl)cc3)n2)c1 ? lowest

Then O=C(O)c1cnn(-c2nc(O)c3c(cnn3Cc3ccc(-c4cccc(F)c4F)cc3)n2)c1 ? lowest

Then CC(C)(CCn1ncc2nc(-n3cc(C(=O)O)cn3)nc(O)c21)c1ccc2ccccc2c1 ? highest

Then CC(C)[C@H]1CC[C@H](C)[C@H](n2ncc3nc(-n4cc(C(=O)O)cn4)nc(O)c32)C1 ? highest

Then O=C(O)c1cnn(-c2nc(O)c3c(cnn3CCCOc3ccccc3C(F)(F)F)n2)c1 ? lowest

Then O=C(O)c1cnn(-c2nc(O)c3c(cnn3Cc3ccc(-c4c(F)cccc4F)cc3F)n2)c1 ? middle

Then C[C@@H](c1cccc(Cl)c1F)n1ncc2nc(-n3cc(C(=O)O)cn3)nc(O)c21 ? highest

----------
# human HIF-PHD2 (Homo sapiens, UniProt Q9GZT9): IC50 values follow
# Sequence (Q9GZT9 2-426 limits assumed): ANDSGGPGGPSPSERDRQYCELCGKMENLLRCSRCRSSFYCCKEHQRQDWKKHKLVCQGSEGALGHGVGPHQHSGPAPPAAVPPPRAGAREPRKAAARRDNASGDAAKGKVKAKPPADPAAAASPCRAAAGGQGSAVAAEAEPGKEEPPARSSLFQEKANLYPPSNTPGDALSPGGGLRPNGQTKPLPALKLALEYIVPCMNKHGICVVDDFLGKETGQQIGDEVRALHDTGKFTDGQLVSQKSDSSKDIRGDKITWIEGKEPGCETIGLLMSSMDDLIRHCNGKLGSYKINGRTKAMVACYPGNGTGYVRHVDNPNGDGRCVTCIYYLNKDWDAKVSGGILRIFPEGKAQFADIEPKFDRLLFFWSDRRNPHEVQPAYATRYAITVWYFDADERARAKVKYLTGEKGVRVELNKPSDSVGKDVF
One number for each entry, in µM.

Give one value of IC50 per listed compound.
1. CC[C@@H](c1ccc(OC(F)(F)F)c(F)c1)n1ncc2nc(-n3cc(C(=O)O)cn3)nc(O)c21 [Example 352]
2. CC(C)(Cn1ncc2nc(-n3cc(C(=O)O)cn3)nc(O)c21)Oc1ccccc1Cl [Example 209]
3. Cc1cc(C(C)n2ncc3nc(-n4cc(C(=O)O)cn4)nc(O)c32)ccc1F (stereo not shown) [Example 301]

1. 0.032
2. 0.033
3. 0.054

What does the data say about its IC50? Entry: Cc1ccc(C(C(C)C)n2ncc3nc(-n4cc(C(=O)O)cn4)nc(O)c32)cc1 (single isomer, unassigned) [Example 26] 0.066
